- System: SR leukemia
- ASSAY_METHOD_TEXT: NCI-60 one-dose screen, 48 h (100 = growth as untreated, 0 = no growth, -100 = all killed)
- CONDITION_SUMMARY: 10 µM unless noted
- Protocol: Growth inhibition of the SR human tumor cell line is measured as a screen for anti-cancer activity. Cells are grown in 96 well plates and exposed to the test compound for 48 hours. Compounds are tested at a single concentration, which is 10^-5 M for most compounds. The reported endpoint is percent growth (GI% or GIPRCNT), where numbers from 0 - 100% represent growth inhibition, and numbers from -100% - 0 represent cell death. For example, a value of 40 represents 60% growth inhibition. […]
The panel holds about 83,000 compounds, 20% with a hit somewhere; the sample as a whole holds those more often.
Listing of entries alongside the reported growth.
Quick note: give the figure in %, leave out the unit.

[in] Using the record for CS(=O)(=O)c1ccc(Cl)c([N+](=O)[O-])c1 , report its growth.
[out] 18.6

[in] CC(C)OC1OC(OC(C)C)C(OC(C)C)OC1OC(C)C (stereo unspecified) ?
[out] 100

[in] CNC(=O)c1c(NC(=O)c2cccc(C(F)(F)F)c2)sc2c1CCC(=O)C2 ?
[out] 1.53

[in] COc1cc(C2CC(c3ccccc3)=NN2C=O)ccc1Oc1nc2c(c(=O)n(C)c(=O)n2C)n1C (stereo unspecified) ?
[out] 67.4

[in] CC(=O)Cc1ccccn1 ?
[out] 108

[in] CC(=O)CC(c1ccc([N+](=O)[O-])cc1)c1c(O)c2ccccc2oc1=O (stereo unspecified) ?
[out] 92.9

[in] O=C(Nc1ccc([N+](=O)[O-])cc1)c1cc2ccccc2cc1O ?
[out] -17.1

[in] Clc1ccc(Cl)c(N=Cc2ccc3c(c2)OCO3)c1 ?
[out] 114

[in] O=[N+]([O-])c1ccc(N/N=C/c2ccccc2O)nc1 ?
[out] 14.8

[in] CCc1onc(-c2ccc(OC)cc2)c1-c1ccccc1OCCN(CC)CC ?
[out] 66.5

[in] O=C1/C(=C/c2ccccc2)SC(=Nc2ccccc2)N1Nc1ccccc1 ?
[out] -20.1

---

- System: UACC-62 melanoma
- ASSAY_METHOD_TEXT: NCI-60 one-dose screen, 48 h (100 = growth as untreated, 0 = no growth, -100 = all killed)
- CONDITION_SUMMARY: 10 µM unless noted
Compounds without any hit were thinned out: in the full panel of roughly 83,000, 20% have a hit.
Listing of entries alongside the reported growth.
Quick note: give the figure in %, leave out the unit.

Answered examples (8):
CCOC(=O)C1C(=O)C=C(c2ccccc2)CC1c1sc(N(C)Cc2ccccc2)nc1Cl (configuration not stated) = 61.4
Nc1nc(NC2CC2)cc(-c2cccc(Cl)c2Cl)n1 = 36.1
S=C(Cc1ccccc1)N1CCN(c2ccccc2Cl)CC1 = 86.2
COc1cc(CN(CCC(O)N2CCCC2=O)Cc2ccc3c(c2)OCO3)cc(OC)c1OC (configuration not stated) = 101
COc1ccc(-c2cc(C(=O)Nc3ccc(C)cc3)nc3[nH]c(=O)sc23)cc1 = 31.3
Cc1cc(-c2ccccc2)on1 = 110
COc1ccc(-c2cc(-c3cn(-c4cccc(Cl)c4)nc3-c3ccc(OC)cc3)[nH]c(=S)n2)cc1 = 88
CS(=O)(=O)c1ccc(C(=O)N/N=C/c2ccccc2O)cc1 = 16.4

[in] Using the record for O=C(Nc1cccc(-n2ccc3c(NC(=O)c4ccccc4)nccc32)c1)c1ccc(Cl)c(Cl)c1 , report its growth.
[out] -61.3

[in] Clc1ccc(-c2nc(-c3cccs3)no2)cc1 ?
[out] 88.1

[in] Cc1ccc(Nc2cccc3ccccc23)cc1 ?
[out] 85.4

[in] CCN1C(=O)N(CC)C2C1NN=c1s/c(=C\c3ccc(Br)cc3)c(=O)n12 (configuration not stated) ?
[out] 39.9

[in] COc1cccc(-c2nc3sccn3c2-c2ccnc(NCCN3CCCN(C)S3(=O)=O)n2)c1 ?
[out] 15.2

[in] COc1cc(Nc2ncccc2/C=C/C(=O)c2cc(OC)c(OC)c(OC)c2)cc(OC)c1OC ?
[out] 65.8

[in] N#CCCn1cnc2c(N)ncnc21 ?
[out] 96.7

[in] Cc1cc(N)cc(C)c1-c1c(Br)cc(N)cc1Br ?
[out] 48.9

[in] COc1cc2ncnc(Nc3ccc(S(=O)(=O)Nc4nccs4)cc3)c2cc1OCCCN1CCOCC1 ?
[out] 98.7

[in] Cn1c(=O)c2c(nc(N/N=C/c3ccccc3Cl)n2C)n(C)c1=O ?
[out] 104

[in] CNC1=C([N+](=O)[O-])C(c2ccccc2O)C(C#N)=C(c2cccs2)O1 (configuration not stated) ?
[out] 89.3

---

- System: A549/ATCC NSCLC
- ASSAY_METHOD_TEXT: NCI-60 one-dose screen, 48 h (100 = growth as untreated, 0 = no growth, -100 = all killed)
- CONDITION_SUMMARY: 10 µM unless noted
Compounds without any hit were thinned out: in the full panel of roughly 83,000, 20% have a hit.
Label fulfilled when growth < 80%; otherwise not fulfilled.

These solved cases illustrate the format of a correct answer.
CCn1c(Cc2ccccc2Nc2c(Cl)cccc2Cl)nnc1SCC(=O)Nc1ccccc1C(F)(F)F = fulfilled
CNC(=O)c1c(NC(=O)c2ccc(C(C)C)cc2)sc2c1CCC(=O)C2 = fulfilled
CSC1=N/C(=C\c2cccc(OCc3ccc(Cl)cc3)c2)C(=O)N1 = not fulfilled

[in] Does the reported growth of CCCCCCCCCCCCCCCCCC(=O)OCCCCCCCCCCCCC stay below 80%?
[out] not fulfilled

[in] C#CCO[C@H]1CC[C@H](OCC#C)[C@@H]2[C@H]1[C@H]1C[C@@H]3[C@@]4(C)CCC[C@@](C)(C(=O)OC)[C@@H]4CC[C@@]23C=C1C(C)C ?
[out] fulfilled

[in] O=C(/C=C/c1cn(-c2ccccc2)nc1-c1ccccc1)OCc1cn(-c2cccc([N+](=O)[O-])c2)nn1 ?
[out] fulfilled

---

Listing of entries alongside the reported growth.
- System: OVCAR-3 ovarian
- ASSAY_METHOD_TEXT: NCI-60 one-dose screen, 48 h (100 = growth as untreated, 0 = no growth, -100 = all killed)
- CONDITION_SUMMARY: 10 µM unless noted
About 83,000 compounds went through this panel and 20% of them were active in at least one assay; those are over-represented in the sample as a whole.
Quick note: give the figure in %, leave out the unit.

[in] Using the record for COc1ccc2c(c1)C1=NN(C(=O)CO)[C@H](c3ccc(OC(F)(F)F)cc3)[C@@H]1CC2 , report its growth.
[out] 88.6

[in] CN(C)c1ccc(/C=C\c2cccc[n+]2C)cc1 ?
[out] 9.08

[in] C=CCN(CC#N)CC=C ?
[out] 119

[in] COc1ccc(-c2cc(-c3ccc(OC)cc3)c3sc(=O)[nH]c3n2)cc1 ?
[out] 101

---

- Tested on: BT-549 breast
- ASSAY_METHOD_TEXT: NCI-60 one-dose screen, 48 h (100 = growth as untreated, 0 = no growth, -100 = all killed)
- CONDITION_SUMMARY: 10 µM unless noted
- Description: Growth inhibition of the BT-549 human tumor cell line is measured as a screen for anti-cancer activity. Cells are grown in 96 well plates and exposed to the test compound for 48 hours. Compounds are tested at a single concentration, which is 10^-5 M for most compounds. The reported endpoint is percent growth (GI% or GIPRCNT), where numbers from 0 - 100% represent growth inhibition, and numbers from -100% - 0 represent cell death. For example, a value of 40 represents 60% growth inhibition. […]
This is part of a sample that, as a whole, favours compounds with a hit. Of some 83,000 tested, about 20% had one in any assay.
OBSERVATION_TYPE: growth (%)
Quick note: give the figure in %, leave out the unit.

COc1ccc([C@H]2c3[nH]c4ccccc4c3C[C@H]3C(=O)N(CCCCCCC(=O)NO)CC(=O)N23)cc1 = 62.4
CC(C)[C@@]12C[C@@H](OC(=O)C3CO3)[C@@](C)(O1)[C@@H]1CC[C@@H](C)[C@H]1[C@@H]2OC(=O)/C=C/c1ccccc1 (stereo not given in full) = 77.1

[in] Using the record for C=C(c1ccc(C(=O)NCCCn2ccnc2)cc1)c1cc2c(cc1C)C(C)(C)CCC2(C)C , report its growth.
[out] 39.7

[in] COc1cccc(NC(=O)OC(C)C)c1 ?
[out] 103

[in] O=C(CSc1nc2c(n1Nc1ccccc1)-c1ccccc1SC2)Nc1nccs1 ?
[out] 127

[in] O=C(/C=C/c1ccccc1Br)c1cccc(OCCCCOc2cccc(C(=O)/C=C/c3ccccc3Br)c2)c1 ?
[out] 104

[in] CCNCCCn1c2c(c3ccc(Cl)cc3c1=O)C(=O)c1cc(OC)cnc1-2 ?
[out] 39.8

[in] C#C[C@]1(O)CC[C@H]2[C@@H]3CC=C4c5sc(-c6cccc(Br)c6)nc5CC[C@]4(C)[C@H]3CC[C@@]21C ?
[out] 87.3

[in] CN(C)N1C(=O)c2c(Cl)c(Cl)c(Cl)c(Cl)c2C1=O ?
[out] 129

[in] CC(C)c1ccc(-c2cnc3nonc3n2)cc1 ?
[out] 7.62
